test: MMV: MTT Cytotoxicity Assay Day 7 pi of Assay #6 (compound washed out Day 1 pi), U87-CD4-CCR5 cells, % cell death @ 5mM compound; assay type: toxicity, cell-based; details: human, u87-cd4-ccr5, 5000 µM
Please go through the items and note down their % Cell Death.
// response body must contain only the number

Enquiry: Please list % Cell Death recorded for the compound COc1cc2c(cc1OC)C1=NNC(=O)C1=NC(C)(C)C2
Return: 101

Enquiry: Please list % Cell Death recorded for the compound O=C(NCC1Cc2cccc(-c3ccncc3)c2O1)c1csc2c1CCCC2 (configuration not stated)
Return: 7

Enquiry: Please list % Cell Death recorded for the compound Brc1ccc(Nc2nc3ccccc3nc2Nc2ccc(Br)cc2)cc1
Return: -14

Enquiry: Please list % Cell Death recorded for the compound CCCc1c(C)nc2ccccc2c1O
Return: 22

Enquiry: Please list % Cell Death recorded for the compound COc1ccc2nc(C)cc(Nc3ccc(Cl)cc3)c2c1
Return: 103

Enquiry: Please list % Cell Death recorded for the compound FC(F)(F)c1cccc(Nc2nc(-c3ccccc3)nc3ncccc23)c1
Return: 0

Enquiry: Please list % Cell Death recorded for the compound CCOc1ccc(Nc2ccnc3cc(Cl)ccc23)cc1
Return: 20

Enquiry: Please list % Cell Death recorded for the compound Cl.OC(CNCc1ccccc1)Cn1c2ccccc2c2ccccc21 (configuration not stated)
Return: 10

Enquiry: Please list % Cell Death recorded for the compound O=C(Nc1ccc(Cl)c(Cl)c1)Nc1ccc(Cl)c(Cl)c1
Return: 54

Enquiry: Please list % Cell Death recorded for the compound COc1cccc(NC(=O)Cn2c(C)c(C#N)c3ccccc32)c1
Return: 29

Enquiry: Please list % Cell Death recorded for the compound CC(C)(C)c1ccc(O)c(CNC2CCCCC2)c1
Return: 69

Enquiry: Please list % Cell Death recorded for the compound CCN1CCN(c2c(C(=O)c3ccccc3)cnc3cc(OC)c(OC)cc23)CC1
Return: 23

====

experiment: MMV: MTT Cytotoxicity Assay Day 7 pi of Assay #11 (NO washout), U87-CD4-CXCR4 cells, % cell death @ 5mM compound; type: toxicity, cell-based; conditions: human, u87-cd4-cxcr4, 5000 µM
Please go through the items and note down their % Cell Death.
// response body must contain only the number

Enquiry: Please list % Cell Death recorded for the compound FC(F)(F)c1ccc(Nc2nnnc3ccccc23)cc1
Return: 90

Enquiry: Please list % Cell Death recorded for the compound COC(=O)c1ccc(Cl)c2c1C1C=CCC1C(c1cccc3ccccc13)N2 (stereo unspecified)
Return: -34

Enquiry: Please list % Cell Death recorded for the compound Cc1ccccc1OCCSc1nc2ccc(NC(=O)c3cccs3)cc2s1
Return: 106

Enquiry: Please list % Cell Death recorded for the compound Cc1c(C)n(Cc2ccc(F)cc2)c2ccc(C(=O)NCc3ccco3)cc12
Return: 103

Enquiry: Please list % Cell Death recorded for the compound CN(C)CCCNc1c2ccccc2nc2ccccc12
Return: -4

Enquiry: Please list % Cell Death recorded for the compound COc1ccc(-c2nc(NC(=O)CS(=O)(=O)c3ccc(F)cc3)sc2C)cc1
Return: 71

Enquiry: Please list % Cell Death recorded for the compound COc1ccc(C(=O)NC(c2ccc(Cl)cc2Cl)c2cc(Cl)c3cccnc3c2O)cc1 (stereo unspecified)
Return: 102

Enquiry: Please list % Cell Death recorded for the compound CCCn1c(=N)c(C(=O)NC2CCCCC2)cc2c(=O)n3cccc(C)c3nc21
Return: -51

Enquiry: Please list % Cell Death recorded for the compound CCOc1ccc(N2C(N)=NC(N)=NC2(C)C)cc1.Cl
Return: -36

Enquiry: Please list % Cell Death recorded for the compound Cn1c(=O)c2cc(C(=O)NCCCN3CCCCCC3)sc2c2ccccc21
Return: 29

Enquiry: Please list % Cell Death recorded for the compound CCOc1cc(Br)c(C(C)NC(=O)c2cccc(OC)c2)cc1OCC (stereo unspecified)
Return: -7
